subject-of-test: T1, Recombinant human G-CSFR (Glu25-Pro621, 381-GR/CF, R&D Systems) (human, UniProt Q99062 25-621)
T1 construct: range 25-621; Bought protein, amine-coupled to a CM5 chip for SPR; also called rhG-CSFR; granulocyte-colony stimulating factor receptor
T1 sequence (looked up): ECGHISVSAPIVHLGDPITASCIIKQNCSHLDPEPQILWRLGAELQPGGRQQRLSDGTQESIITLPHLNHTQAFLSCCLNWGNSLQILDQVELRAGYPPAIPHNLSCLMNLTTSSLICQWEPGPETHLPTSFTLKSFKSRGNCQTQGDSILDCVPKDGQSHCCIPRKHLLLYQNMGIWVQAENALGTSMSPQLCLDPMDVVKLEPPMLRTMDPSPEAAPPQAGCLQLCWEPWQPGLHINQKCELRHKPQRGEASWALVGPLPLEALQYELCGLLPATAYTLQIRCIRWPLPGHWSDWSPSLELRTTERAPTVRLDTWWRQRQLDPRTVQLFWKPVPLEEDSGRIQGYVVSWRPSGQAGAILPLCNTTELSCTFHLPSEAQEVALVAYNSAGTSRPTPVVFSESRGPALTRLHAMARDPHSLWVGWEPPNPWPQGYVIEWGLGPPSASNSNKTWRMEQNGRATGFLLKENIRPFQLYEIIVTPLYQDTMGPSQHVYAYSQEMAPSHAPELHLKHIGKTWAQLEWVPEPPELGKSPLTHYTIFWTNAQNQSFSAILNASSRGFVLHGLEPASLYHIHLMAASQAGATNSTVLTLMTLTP
test: SPR, Biacore X100, multi-cycle kinetics, rhG-CSFR amine-coupled to CM5 chip, design as analyte, 1:1 model; series of Fig. 6 (from 20 nM)
observation-type: kon (M⁻¹ s⁻¹)
Provide only the numeric value, understood in M⁻¹ s⁻¹.

Take a look at these entries with their results.
>  <binder>
boa1 (designed binder, Strictly monomeric in solution; Expressed from pET28a downstream of an N-terminal His-tag and thrombin cleavage site; also called bivalent-orientation antiparallel design 1) MAALAAALQSIYRKLAEMQAKLKSLEGISPELGPALDALRYDMADFAILMAQAMEEGLDSLPQSFLRKALEMIRKIQADAAALREKLAATYKGNDRADAAVYIAADLEILLEQAYQILRHLAAA

>  <meas-value>
690000

$$$$
>  <binder>
bop1 (designed binder, De novo four-helix bundle, strictly monomeric in solution; Expressed from pET28a downstream of an N-terminal His-tag and thrombin cleavage site; also called bivalent-orientation parallel design 1) MAALDAALYEIYDGLILYQQRLKSLEGISPELGPALDALRYDMADFAILMAQAMEEGLDSLPQSFLRKALEMIRKIQADAAALREKLAATYKGNDRAAAAQSIARKLEEMLEKAYQILRHLAAA

>  <meas-value>
880000

$$$$

Here's the next entry for you.
Problem: Using the record for bv6 (designed binder, Expressed from pET28a downstream of an N-terminal His-tag and thrombin cleavage site; Minorly dimeric in solution; also called starting template) MAALAAALAEIYKGLAEYQARLKSLEGISPELGPALDALRYDMADFAILMAQAMEEGLDSLPQSFLRKALEMIRKIQADAAALREKLAATYKGNDRAAAAVEIAAQLEAFLEKAYQILRHLAAA , report its kon.
Solution: 1.2e+06
